Experiment: amyloid nucleation score (Sup35N fusion, yeast selection) (log enrichment); library NNK1; higher = more nucleation; inactive = no reads after selection;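 note: zero at mode of non-aggregating sequences after 7 days selection at 30°C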
Category key, based on recorded amyloid nucleation score: low interval = under -0.4, middle interval = from -0.4 up to 0.5, high interval = 0.5 and over

Before answering, review these 2 worked examples.
**Query** Bin this entry: `PLAHLSRLEESYWPSQTHPS`
**Result** middle interval

**Query** Now consider `CIMMRHMVSYEADLRTMFLN` .
**Result** high interval

Others:
**Query** Textbook exercise: identify the category of the substance given here, `RFVLVMYMESLKMHCSLTYT` , according to its measured value.
**Result** middle interval

**Query** And what about the substance `DDVVWNYSTA` ?
**Result** low interval

**Query** Now consider `ICYSGHERYWLNLGICEGDS` and answer again.
**Result** middle interval

**Query** Can you handle `IVHIHGLQAANLAASWSANL` next?
**Result** high interval

**Query** Would you kindly repeat that for `FGNRFEYRFERTN` ?
**Result** low interval

**Query** # iterate: `VHNPSVNDLYFLVICCVYLF`
**Result** middle interval

**Query** Check `ASNGVN` too.
**Result** middle interval
